Every entry's value here was drawn from patent US20240099298A1.

test system: Megalurothrips usitatus (Bagrall) (thrips); assay: Median lethal concentration fumigation test, thrips; conditions: adult thrips, exposed one hour, mortality observed in 24 hours
# LC50 (fiducial limits) values compiled below
measurement-label: LC50 (fiducial limits)

[[record]]
compound = "C=CC(C)(O)CCC=C(C)C (stereo not shown) [Linalool, 3,7-dimethylocta-1,6-dien-3-o1]"
val = "2.50 µg/mL"

[[record]]
compound = "CC(C)=C1CC[C@@H](C)CC1=O [(+)-Pulegone]"
val = "0.20 µg/mL"

[[record]]
compound = "Cc1ccc(C(C)C)cc1O [Carvacrol]"
val = ">19.2 µg/mL"

[[record]]
compound = "C=CCc1ccc(OC)cc1 [Estragole]"
val = "0.24 µg/mL"


---

target: recombinant gamma-aminobutyric acid receptor-associated protein (rGABARAP) (Frankliniella occidentalis); assay: Microscale thermophoresis (MST) binding to rGABARAP
Sequence (A0A6J1T1Q2 1-118): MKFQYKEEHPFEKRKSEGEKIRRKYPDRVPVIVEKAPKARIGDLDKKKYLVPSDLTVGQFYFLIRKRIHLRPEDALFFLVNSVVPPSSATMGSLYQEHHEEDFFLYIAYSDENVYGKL
pKd: −log10 of the molar value.
measurement-label: pKd

[[record]]
compound = "COc1cccc2c1cc([N+](=O)[O-])c1c(C(=O)O)cc3c(c12)OCO3 [Aristolochic acid A, reference compound]"
measurement_label = "pKd"
val = 3.84


---

tested on: Musca domestica (housefly); test: Median knockdown concentration (KC50) test, housefly; assay type: in vivo; conditions: Musca domestica, 30 Minutes
Catalogue of KC50 (fiducial limits) values
measurement-label: KC50 (fiducial limits)

[[record]]
compound = "Cc1ccc(C(C)C)cc1O"
measured_target = "Musca domestica (housefly)"
val = ">243 µg/mL"

[[record]]
compound = "COP(=O)(OC)OC=C(Cl)Cl [DDVP 80%, 2,2-Dichlorovinyl dimethyl phosphate, reference compound]"
measured_target = "Musca domestica (housefly)"
val = ">2.7 µg/mL"

[[record]]
compound = "CC(C)=C1CC[C@@H](C)CC1=O [(+)-Pulegone]"
measured_target = "Musca domestica (housefly)"
val = "12.2 µg/mL"

[[record]]
compound = "C/C=C/c1ccc(OC)cc1 [trans-Anethole]"
measured_target = "Musca domestica (housefly)"
val = ">243 µg/mL"

[[record]]
compound = "C=CC(C)(O)CCC=C(C)C (stereo not drawn)"
measured_target = "Musca domestica (housefly)"
val = "192 µg/mL"

[[record]]
compound = "C=CCc1ccc(OC)cc1"
measured_target = "Musca domestica (housefly)"
val = ">243 µg/mL"


---

test system: Tetranychus cinnabarinus (Boisduval) (spider mites); details: spider mites, exposed one hour
Label Condition met when LC90 (fiducial limits) < 40 µg/mL; otherwise Condition not met.

[[record]]
molecule = "C=CC(C)(O)CCC=C(C)C (centres unmarked)"
measured_target = "Tetranychus cinnabarinus (Boisduval) (spider mites)"
assigned_category = "Condition not met"

[[record]]
molecule = "COP(=O)(OC)OC=C(Cl)Cl [DDVP 80%, 2,2-Dichlorovinyl dimethyl phosphate, reference compound]"
measured_target = "Tetranychus cinnabarinus (Boisduval) (spider mites)"
assigned_category = "Condition met"

[[record]]
molecule = "Cc1ccc(C(C)C)cc1O"
measured_target = "Tetranychus cinnabarinus (Boisduval) (spider mites)"
assigned_category = "Condition not met"

[[record]]
molecule = "C=CCc1ccc(OC)cc1"
measured_target = "Tetranychus cinnabarinus (Boisduval) (spider mites)"
assigned_category = "Condition met"


---

system: B. cucuribitae (melon fly); assay: Median lethal time (LT50) test, melon fly; assay type: in vivo, Bactrocera cucuribitae
Marks after values point to notes of the source that are not given here.
measurement-label: LT50 (fiducial limits)

[[record]]
compound = "ClC(Cl)Cl [Chloroform]"
val = ">48^a ^ hour"

[[record]]
compound = "C=CC(C)(O)CCC=C(C)C (stereo not drawn) [Linalool, 3,7-dimethylocta-1,6-dien-3-o1]"
val = "2.05 h"

[[record]]
compound = "CC(C)=O [Acetone]"
val = ">48^a ^ hour"

